Values compiled from ChEMBL document CHEMBL4630908.

- Target: Vasopressin V1a receptor (Homo sapiens)
- Sequence (P37288 whole entry): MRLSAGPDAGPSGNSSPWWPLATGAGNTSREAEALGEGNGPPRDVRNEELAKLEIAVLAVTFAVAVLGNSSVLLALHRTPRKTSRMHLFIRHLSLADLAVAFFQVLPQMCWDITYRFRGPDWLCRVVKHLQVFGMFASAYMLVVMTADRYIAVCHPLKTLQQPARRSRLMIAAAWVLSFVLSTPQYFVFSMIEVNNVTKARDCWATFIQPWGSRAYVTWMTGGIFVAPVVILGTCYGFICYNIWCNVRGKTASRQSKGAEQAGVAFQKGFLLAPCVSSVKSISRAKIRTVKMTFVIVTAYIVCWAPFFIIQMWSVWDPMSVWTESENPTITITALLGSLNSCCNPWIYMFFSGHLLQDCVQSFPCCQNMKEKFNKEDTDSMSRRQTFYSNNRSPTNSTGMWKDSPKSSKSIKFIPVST
Readout Label: IC50

[[record]]
molecule = "CC(=O)Nc1c(F)cc(C(=O)N[C@H]2CC[C@H](O)CC2)cc1O[C@@H](C)c1ccccc1"
readout_label = "IC50"
measured = "> 39.8 µM"


----------
- Target: ATPase family AAA domain-containing protein 2B (Homo sapiens, UniProt Q9ULI0)
- Sequence (Q9ULI0 whole entry): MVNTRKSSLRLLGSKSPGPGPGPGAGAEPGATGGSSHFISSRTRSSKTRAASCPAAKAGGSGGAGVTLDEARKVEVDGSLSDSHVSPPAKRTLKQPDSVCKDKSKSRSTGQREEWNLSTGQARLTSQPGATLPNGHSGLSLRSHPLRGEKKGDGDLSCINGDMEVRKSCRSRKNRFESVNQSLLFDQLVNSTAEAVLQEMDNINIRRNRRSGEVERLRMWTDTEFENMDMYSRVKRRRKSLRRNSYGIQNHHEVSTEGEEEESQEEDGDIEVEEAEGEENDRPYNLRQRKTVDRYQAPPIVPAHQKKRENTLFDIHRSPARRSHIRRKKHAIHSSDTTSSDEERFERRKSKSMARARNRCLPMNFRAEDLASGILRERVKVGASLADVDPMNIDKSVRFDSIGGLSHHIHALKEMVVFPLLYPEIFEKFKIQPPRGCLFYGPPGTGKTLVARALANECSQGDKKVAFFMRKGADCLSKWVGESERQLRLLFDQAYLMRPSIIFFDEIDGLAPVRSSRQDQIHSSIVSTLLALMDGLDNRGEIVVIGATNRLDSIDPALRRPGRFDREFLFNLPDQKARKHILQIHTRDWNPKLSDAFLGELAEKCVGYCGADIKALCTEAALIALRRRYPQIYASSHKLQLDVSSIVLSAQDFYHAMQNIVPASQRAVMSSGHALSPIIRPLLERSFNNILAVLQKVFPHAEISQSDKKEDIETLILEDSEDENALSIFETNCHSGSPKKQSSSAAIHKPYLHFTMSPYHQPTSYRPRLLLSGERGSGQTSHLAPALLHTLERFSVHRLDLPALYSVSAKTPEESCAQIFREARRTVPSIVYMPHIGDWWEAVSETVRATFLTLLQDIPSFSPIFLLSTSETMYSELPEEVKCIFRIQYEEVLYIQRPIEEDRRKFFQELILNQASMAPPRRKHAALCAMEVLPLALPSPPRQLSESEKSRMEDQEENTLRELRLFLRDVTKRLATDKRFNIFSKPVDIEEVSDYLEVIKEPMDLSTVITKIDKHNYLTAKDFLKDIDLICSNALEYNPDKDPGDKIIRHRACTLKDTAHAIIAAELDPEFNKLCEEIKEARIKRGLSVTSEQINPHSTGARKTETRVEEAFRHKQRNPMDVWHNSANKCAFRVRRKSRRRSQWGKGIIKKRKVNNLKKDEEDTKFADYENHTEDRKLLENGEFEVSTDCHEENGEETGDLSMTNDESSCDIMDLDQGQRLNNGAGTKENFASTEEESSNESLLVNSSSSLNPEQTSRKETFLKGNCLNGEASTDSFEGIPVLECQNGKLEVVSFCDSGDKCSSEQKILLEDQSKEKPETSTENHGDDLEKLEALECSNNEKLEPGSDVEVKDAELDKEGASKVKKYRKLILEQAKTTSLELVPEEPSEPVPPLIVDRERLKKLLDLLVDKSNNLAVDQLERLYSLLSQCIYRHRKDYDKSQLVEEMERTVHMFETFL
- Test Name: ATAD2B DiscoverX BROMOscan
Readout Label: Kd (µM)

[[record]]
molecule = "CC(=O)Nc1c(F)cc(C(=O)N[C@H]2CC[C@H](O)CC2)cc1O[C@@H](C)c1ccccc1"
target = "ATPase family AAA domain-containing protein 2B (Homo sapiens, UniProt Q9ULI0)"
readout_label = "Kd"
measured = 30

